- system-under-test: human P2X3 receptor (Homo sapiens (Human), UniProt P56373)
- Sequence (P56373 whole entry): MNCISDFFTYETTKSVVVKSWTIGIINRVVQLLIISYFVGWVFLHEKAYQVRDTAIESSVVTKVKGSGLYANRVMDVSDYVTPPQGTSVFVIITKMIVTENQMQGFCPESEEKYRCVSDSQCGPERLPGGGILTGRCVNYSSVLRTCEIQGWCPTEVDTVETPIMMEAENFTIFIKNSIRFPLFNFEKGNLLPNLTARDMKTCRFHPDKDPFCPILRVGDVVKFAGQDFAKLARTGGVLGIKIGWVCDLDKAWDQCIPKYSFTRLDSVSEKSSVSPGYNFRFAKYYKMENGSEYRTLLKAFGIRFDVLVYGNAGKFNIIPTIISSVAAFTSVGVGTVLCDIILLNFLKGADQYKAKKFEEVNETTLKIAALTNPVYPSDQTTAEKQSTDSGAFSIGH
- method-description: Evaluation of human P2X3 receptor inhibitory activity (Test Example 1-1, FDSS 3000, 96-well, 50 nM ATP)
- Format: cell-based
- experimental-context: human P2X3 receptor in C6BU-1 cells; Test Example 1-1 (compounds I-001 to I-300)
The following molecules are shown together with reported pIC50 values.
Worth noting: pIC50 values are minus log10 of concentrations stated in mol/L.

Examples with answers:
# sample-smiles, system-under-test, pIC50
rows = [
    ("COc1cccc(Oc2ccc(/N=c3\\[nH]cc(C(N)=O)c(=O)n3Cc3ccc(Cl)cc3)cc2C)n1", "human P2X3 receptor (Homo sapiens (Human), UniProt P56373)", 7.00),
    ("CCc1oc2ccc(/N=c3\\[nH]cc(C=NN4CCOCC4)c(=O)n3Cc3ccc(Cl)cc3)cc2c1C", "human P2X3 receptor (Homo sapiens (Human), UniProt P56373)", 7.66),
    ("O=C(NC1CCOCC1)c1cn(Cc2ccc(Cl)cc2)c(Nc2ccc(Oc3nccs3)cc2)nc1=O", "human P2X3 receptor (Homo sapiens (Human), UniProt P56373)", 7.66),
    ("CCc1oc2ccc(Nc3ncc(NC(=O)C4CCOCC4)c(=O)n3Cc3ccc(Cl)c(Cl)c3)cc2c1C", "human P2X3 receptor (Homo sapiens (Human), UniProt P56373)", 7.24),
    ("CCOC(=O)c1c[nH]/c(=N\\c2ccc(Oc3ccc(F)cn3)c(F)c2)n(Cc2ccc(Cl)cc2)c1=O", "human P2X3 receptor (Homo sapiens (Human), UniProt P56373)", 7.32),
]

Input line: Recall the recorded pIC50 for Cc1ccc(Oc2ccc(/N=c3\[nH]cc(C(N)=O)c(=O)n3Cc3ccc(Cl)cc3)cc2)nn1 with human P2X3 receptor (Homo sapiens (Human), UniProt P56373) and state it.
Output line: 7.68

Input line: Same read-out for CCC(=O)Nc1c[nH]/c(=N\c2ccc(Oc3cnc(C#N)cn3)cc2)n(Cc2ccc(Cl)cc2)c1=O ?
Output line: 8.40

Input line: Same read-out for O=C(Nc1c[nH]/c(=N\c2ccc(Oc3ccon3)cc2)n(Cc2ccc(Cl)cc2)c1=O)c1ccoc1 ?
Output line: 7.35

Input line: Same read-out for CCOC(=O)c1c[nH]/c(=N\c2ccc(Oc3cccc(C#N)n3)cc2)n(Cc2ccc(Cl)cc2)c1=O ?
Output line: 7.68

Input line: Same read-out for CCc1c[nH]/c(=N\c2ccc(Oc3cncc(C(=O)O)c3)cc2)n(Cc2ccc(Cl)cc2)c1=O ?
Output line: 7.27

Input line: Same read-out for CCn1c(=O)cc(Nc2ccc(Oc3cccc(C#N)n3)c(F)c2)n(Cc2ccc(Cl)cc2)c1=O ?
Output line: 8.70

Input line: Same read-out for CCOC(=O)c1cn(Cc2ccc(Cl)cc2)c(Nc2ccc3oc(CC)c(C)c3c2)nc1=O ?
Output line: 6.80

Input line: Same read-out for CCc1oc2ccc(Nc3ncc(NC(=O)C4CCOCC4)c(=O)n3CC3CCCCC3)cc2c1C ?
Output line: 7.70

Input line: Same read-out for O=c1c(-c2cccnc2)c[nH]/c(=N\c2ccc(Oc3ccon3)cc2)n1Cc1ccc(Cl)cc1 ?
Output line: 6.70

Data provenance is patent US9550763B2.
